From: patent US20130310611A1

method_description: Solubility (physicochemical properties)
cond: solvent water
property_name: Solubility: Water

Known Solubility: Water results, listed for orientation:
COc1cc(/C=C/C(C)c2ccc(O)c(OC)c2)ccc1O (stereo not drawn)	Poorly soluble
CC(CC(/C=C/c1ccc(O)cc1)c1ccc(O)cc1)c1ccc(O)cc1 (stereo not drawn)	Poorly soluble
COc1cc(/C=C/C(C)c2ccc(O)c(O)c2)ccc1O (stereo not drawn)	Non-soluble
COc1cc(C(C)/C=C/c2ccc(O)cc2)ccc1O (single isomer, unassigned)	Non-soluble
CC(/C=C/c1ccc(O)c(O)c1)c1ccc(O)c(O)c1 (stereo not drawn)	Poorly soluble
CC(/C=C/c1cc(O)c(O)cc1C(C)c1ccc(O)c(O)c1)c1ccc(O)c(O)c1 (stereo not drawn)	Poorly soluble
CC(/C=C/c1ccc(O)c(C(C)c2ccc(O)cc2)c1)c1ccc(O)cc1 (stereo not drawn)	Poorly soluble

Now consider the entry below.
What value of Solubility: Water has been reported for the following compound? CC(/C=C/c1ccc(O)cc1)c1ccc(O)cc1 (stereo not drawn)
Poorly soluble
